Molecular target: T1, human CTLA-4 (human, UniProt P16410 36-223)
T1 construct: also called huCTLA4
T1 sequence (P16410 36-223): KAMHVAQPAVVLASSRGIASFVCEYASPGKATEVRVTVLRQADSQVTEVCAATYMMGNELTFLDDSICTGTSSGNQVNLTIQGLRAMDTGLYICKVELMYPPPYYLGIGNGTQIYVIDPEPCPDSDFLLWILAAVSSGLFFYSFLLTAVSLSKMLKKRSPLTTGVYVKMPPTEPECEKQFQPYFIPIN
Test: flow cytometry, CHO cells stably expressing CTLA4
attribute_measured: MFI at 33.3 nM (MFI)

INSERT INTO assay_data (binder, measurement) VALUES
  ('CD80 IgV-Fc S21P/E35D/K37E/D46E/M47I/V68M/R94L (Fc fusion, not shown: a dimerising Fc or GST) VIHVTKEVKEVATLSCGHNVPVEELAQTRIYWQKDKEMVLTMMSGEINIWPEYKNRTIFDITNNLSIMILALRPSDEGTYECVVLKYEKDAFKLEHLAEVTLSVKAD', 20100),
  ('CD80 IgV-Fc V22D/E24D/E35D/M47V/V68M (Fc fusion, not shown: a dimerising Fc or GST) VIHVTKEVKEVATLSCGHNVSDEDLAQTRIYWQKDKKMVLTMMSGDVNIWPEYKNRTIFDITNNLSIMILALRPSDEGTYECVVLKYEKDAFKREHLAEVTLSVKAD', 16900),
  ('CD80 IgV-Fc S21P/E35D/K37E/D46E/M47I/V68M (Fc fusion, not shown: a dimerising Fc or GST) VIHVTKEVKEVATLSCGHNVPVEELAQTRIYWQKDKEMVLTMMSGEINIWPEYKNRTIFDITNNLSIMILALRPSDEGTYECVVLKYEKDAFKREHLAEVTLSVKAD', 20600),
  ('CD80 IgV-Fc T13R/Q33R/E35D/M38I/M47L/V68M/L85M/R94Q (Fc fusion, not shown: a dimerising Fc or GST) VIHVTKEVKEVARLSCGHNVSVEELAQTRIYWRKDKKIVLTMMSGDLNIWPEYKNRTIFDITNNLSIMILALRPSDEGTYECVVMKYEKDAFKQEHLAEVTLSVKAD', 19100),
  ('CD80 IgV-Fc T13R/Q33R/E35D/M38I/M47L/V68M/L85M (Fc fusion, not shown: a dimerising Fc or GST) VIHVTKEVKEVARLSCGHNVSVEELAQTRIYWRKDKKIVLTMMSGDLNIWPEYKNRTIFDITNNLSIMILALRPSDEGTYECVVMKYEKDAFKREHLAEVTLSVKAD', 22000),
  ('CD80 IgV-Fc T13R/Q33L/E35D/M47V/T62S/V68M/L85M (Fc fusion, not shown: a dimerising Fc or GST) VIHVTKEVKEVARLSCGHNVSVEELAQTRIYWLKDKKMVLTMMSGDVNIWPEYKNRTIFDISNNLSIMILALRPSDEGTYECVVMKYEKDAFKREHLAEVTLSVKAD', 105);
